tested on: SK-MEL-28; assay: NCI tumour cell line growth inhibition, 48 h
Activity calls are given as the source filed them. Cut-off read from the data, not from the text of the source: active = GI50 up to about 1.1 µM and inactive = higher.
assayReadout: GI50

CCN1CC2(COC)C(O)CC(OC)C34C5CC6(O)C(OC)C=C(C5C6OC(=O)c5ccc(OC)c(OC)c5)C(C(OC)C23)C14 (stereo not given)    > 7.5 µM (inactive)
C=CCO/N=C/c1cc(/N=C(/S)c2ccoc2C)ccc1Cl    37.8 µM (inactive)
N#C/C(=C\c1cn(Cc2ccccc2)c2ccccc12)c1nn(-c2ccccc2)c(N)c1C#N    27.7 µM (inactive)
O=c1c(-c2ccccc2)c(SCCN2CCOCC2)n(-c2ccccc2)c(=S)n1-c1ccccc1    > 100 µM (inactive)
CC(C)NCCC(O)c1cc2ccccc2o1 (stereo not given)    > 100 µM (inactive)
O=C(Nc1nc(C23CC4CC(CC(C4)C2)C3)cs1)c1c(O)c2ccccc2[nH]c1=O    > 100 µM (inactive)
CC1=CC(O)(c2ccccc2)C(N2CCOCC2)N1O (stereo not given)    > 100 µM (inactive)
CCCSS[C@H]1NC(=O)[C@H]1NC(=O)COc1ccccc1    16.6 µM (inactive)
COC(=O)/C=C(/C(=O)OC)c1c(C)cc2c(C)cc(C)cc(C)c1-2    24.3 µM (inactive)
CCOC(=O)C(C(=O)c1ccccc1C(=O)OC)=P(c1ccccc1)(c1ccccc1)c1ccccc1    > 10 µM (inactive)
